Would you kindly list activity at 10 µM for each of these compounds?
System: OVCAR-3
Assay: NCI60 one-dose screen (10 μM), Ovarian Cancer
Format: cell-based
Conditions: Homo sapiens, OVCAR-3, read-out: Growth percent rate
Just the number in %, nothing appended.

// query Which activity at 10 µM value belongs to CCC12C=CCN3CCC4(c5cc(NC(=O)CN6CCN(Cc7ccc(F)cc7)CC6)c(OC)cc5N(C)C4C(O)(C(=O)OC)C1OC(C)=O)C32 (stereo not drawn) ?
// result 119

// query Which activity at 10 µM value belongs to CCC12C=CCN3CCC4(c5cc(NC(=O)CN6CCN(Cc7ccc(C(F)(F)F)cc7)CC6)c(OC)cc5N(C)C4C(O)(C(=O)OC)C1OC(C)=O)C32 (stereo not drawn) ?
// result 84.5

// query Which activity at 10 µM value belongs to CCC12C=CCN3CCC4(c5ccc(OC)cc5N(C)C4C(O)(C(=O)OC)C1O)C32 (stereo not drawn) ?
// result 112

// query Which activity at 10 µM value belongs to CCC12C=CCN3CC[C@@]4(c5ccc(OC)cc5N(C)[C@H]4[C@@](O)(C(=O)OC)[C@@H]1OC(C)=O)[C@@H]32 (stereo partly drawn) ?
// result 127

// query Which activity at 10 µM value belongs to CC[C@]12C=CCN3CC[C@@]4(c5ccc(OC)cc5N(C)[C@H]4[C@@](O)(C(=O)OC)[C@@H]1OC(=O)CCC(=O)N1CCN(C(=O)c4ccco4)CC1)[C@@H]32 ?
// result 99.8

// query Which activity at 10 µM value belongs to CC[C@]12C=CCN3CC[C@@]4(c5ccc(OC)cc5N(C)[C@H]4[C@@](O)(C(=O)OC)[C@@H]1OC(=O)CCCN1CCN(C(c4ccc(F)cc4)c4ccc(F)cc4)CC1)[C@@H]32 ?
// result -83

----------
Would you kindly list activity at 10 µM for each of these compounds?
System: SN12C
Assay: NCI60 one-dose screen (10 μM), Renal Cancer
Type: cell-based
Conditions: Homo sapiens, 10 μM, Renal Cancer, read-out: Growth percent rate
Just the number in %, nothing appended.

// query Which activity at 10 µM value belongs to CCC12C=CCN3CCC4(c5cc(NC(=O)CCl)c(OC)cc5N(C)C4C(O)(C(=O)OC)C1OC(C)=O)C32 (centres unmarked) ?
// result 11

// query Which activity at 10 µM value belongs to CCC12C=CCN3CCC4(c5cc(NC(=O)CN6CCN(C(=O)c7ccco7)CC6)c(OC)cc5N(C)C4C(O)(C(=O)OC)C1OC(C)=O)C32 (centres unmarked) ?
// result 107

// query Which activity at 10 µM value belongs to CC[C@]12C=CCN3CC[C@@]4(c5ccc(OC)cc5N(C)[C@H]4[C@@](O)(C(=O)OC)[C@@H]1OC(=O)CCCN1CCN(Cc4ccc(F)cc4)CC1)[C@@H]32 ?
// result 43.9

// query Which activity at 10 µM value belongs to CCC12C=CCN3CCC4(c5ccc(OC)cc5N(C)C4C(O)(C(=O)OC)C1OC(=O)CCCN1CCN(C)CC1)C32 (centres unmarked) ?
// result 89.1

// query Which activity at 10 µM value belongs to CC[C@]12C=CCN3CC[C@@]4(c5ccc(OC)cc5N(C)[C@H]4[C@@](O)(C(=O)OC)[C@@H]1OC(=O)CCC(=O)N1CCN(C)CC1)[C@@H]32 ?
// result 86.7

// query Which activity at 10 µM value belongs to CCC12C=CCN3CCC4(c5cc(NC(=O)CN6CCN(c7ccc(C(F)(F)F)cc7)CC6)c(OC)cc5N(C)C4C(O)(C(=O)OC)C1OC(C)=O)C32 (centres unmarked) ?
// result -17

// query Which activity at 10 µM value belongs to CC[C@]12C=CCN3CC[C@@]4(c5ccc(OC)cc5N(C)[C@H]4[C@@](O)(C(=O)OC)[C@@H]1OC(=O)CCC(=O)N1CCN(Cc4ccc(F)cc4)CC1)[C@@H]32 ?
// result 71.2

// query Which activity at 10 µM value belongs to CCC12C=CCN3CCC4(c5cc(NC(=O)CN6CCN(C)CC6)c(OC)cc5N(C)C4C(O)(C(=O)OC)C1OC(C)=O)C32 (centres unmarked) ?
// result 109

// query Which activity at 10 µM value belongs to CCC12C=CCN3CCC4(c5cc(NC(=O)CN6CCN(C(c7ccc(F)cc7)c7ccc(F)cc7)CC6)c(OC)cc5N(C)C4C(O)(C(=O)OC)C1OC(C)=O)C32 (centres unmarked) ?
// result 26.9

// query Which activity at 10 µM value belongs to CC[C@]12C=CCN3CC[C@@]4(c5ccc(OC)cc5N(C)[C@H]4[C@@](O)(C(=O)OC)[C@@H]1OC(=O)CCCN1CCN(Cc4ccc(C(F)(F)F)cc4)CC1)[C@@H]32 ?
// result -4.35

// query Which activity at 10 µM value belongs to CC[C@]12C=CCN3CC[C@@]4(c5ccc(OC)cc5N(C)[C@H]4[C@@](O)(C(=O)OC)[C@@H]1OC(=O)CCC(=O)N1CCN(c4ccc(C(F)(F)F)cc4)CC1)[C@@H]32 ?
// result 9.74
